Give Activity for every item shown.
# Test system: Plasmodium falciparum
# assay_notes: Drug accumulation in digestive vacuole of chloroquine-resistant Plasmodium falciparum assessed as vacuolar accumulation ratio at pH 5.2
# Format: ADME, organism-based
Quick one: just the number, no unit, thanks!

Problem: Please report the recorded Activity for CCN(CC)CCCCSc1ccnc2cc(Cl)ccc12 .
Solution: 170

Problem: Report Activity for CCN(CC)CCCC(CCCN(CC)CC)Oc1ccnc2cc(Cl)ccc12 please.
Solution: 79000

Problem: Any idea what Activity was measured for CCN(CC)CCCCNc1ccnc2cc(Cl)ccc12 ?
Solution: 23000

Problem: Can you look up the measured Activity of CCN(CC)CCCCOc1ccnc2cc(Cl)ccc12 for me?
Solution: 190

Problem: I would be grateful if you could share the reported Activity for CCN(CC)CCCC(C)Nc1ccnc2cc(Cl)ccc12 (stereo not given) [CHLOROQUINE] .
Solution: 23000

###

# System: Plasmodium falciparum
# assay_notes: Selectivity for chloroquine-resistant Plasmodium falciparum Indochina I over chloroquine-sensitive Plasmodium falciparum Haiti 135 as IC50 ratio by [3H]hypoxanthine uptake
# Type: functional
measured_attribute: Ratio IC50
Form: value (number only, do not type unit).

Problem: Which Ratio IC50 reading was recorded for the molecule CCN(CC)CCCCCNc1ccnc2cc(Cl)ccc12 ?
Solution: 9.67

Problem: Given CCN(CC)CCCCNc1ccnc2cc(Cl)ccc12 , state its recorded Ratio IC50.
Solution: 10.2

Problem: Given the molecule CCN(CC)CCCCCCNc1ccnc2cc(Cl)ccc12 , what is its reported Ratio IC50?
Solution: 11.2

Problem: For the molecule CCN(CC)CCNc1ccnc2cc(Cl)ccc12 , what Ratio IC50 is on record?
Solution: 0.714

Problem: Item CCN(CC)CCCNc1ccnc2cc(Cl)ccc12 has what recorded Ratio IC50?
Solution: 1.2
